# ASSAY_SYSTEM: hVDAC1 (Homo sapiens)
# Sequence (P21796 whole entry): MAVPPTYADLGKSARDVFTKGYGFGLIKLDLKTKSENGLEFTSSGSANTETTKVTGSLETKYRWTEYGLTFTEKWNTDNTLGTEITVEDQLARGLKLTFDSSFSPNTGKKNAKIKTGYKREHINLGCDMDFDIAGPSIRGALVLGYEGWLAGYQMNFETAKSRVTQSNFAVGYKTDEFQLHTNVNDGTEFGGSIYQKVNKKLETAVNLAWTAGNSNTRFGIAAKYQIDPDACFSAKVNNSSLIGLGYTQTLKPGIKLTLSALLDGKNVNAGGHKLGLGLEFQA
# PROTOCOL_DETAILS: NanoDSF thermal shift
# Type: binding
# STUDY_CONDITIONS: hVDAC1 in LDAO; compared to hVDAC1 alone at 0% or 5% DMSO
READOUT_TYPE: Tm shift in NanoDSF (direction / significance, in words)

As a guide, the following entries are already answered.
[Q] Report Tm shift in NanoDSF (direction / significance, in words) for CC(C)CCC[C@@H](C)[C@H]1CC[C@H]2[C@@H]3CCC4=CC(=NO)CC[C@]4(C)[C@H]3CC[C@]12C tested on hVDAC1 (Homo sapiens).
[A] negative Tm shift

[Q] Report Tm shift in NanoDSF (direction / significance, in words) for C(=NC1CCCCC1)=NC1CCCCC1 tested on hVDAC1 (Homo sapiens).
[A] increase the Tm

[Q] Report Tm shift in NanoDSF (direction / significance, in words) for O=C(O)c1ccccc1Nc1ccccc1 tested on hVDAC1 (Homo sapiens).
[A] negative Tm shift

[Q] Report Tm shift in NanoDSF (direction / significance, in words) for CC(C)c1cccc(C(C)C)c1O tested on hVDAC1 (Homo sapiens).
[A] increase the Tm

[Q] Report Tm shift in NanoDSF (direction / significance, in words) for COc1cc(/C=C/C(=O)CC(=O)/C=C/c2ccc(O)c(OC)c2)ccc1O tested on hVDAC1 (Homo sapiens).
[A] negative Tm shift

Continue with the next compound.
[Q] Report Tm shift in NanoDSF (direction / significance, in words) for C=C[C@H]1C[N@@]2CC[C@H]1C[C@@H]2[C@@H](O)c1ccnc2ccc(OC)cc12 tested on hVDAC1 (Homo sapiens).
[A] negative Tm shift
